test-target: T1, TNFR1 (Homo sapiens, UniProt P19438)
T1 chain: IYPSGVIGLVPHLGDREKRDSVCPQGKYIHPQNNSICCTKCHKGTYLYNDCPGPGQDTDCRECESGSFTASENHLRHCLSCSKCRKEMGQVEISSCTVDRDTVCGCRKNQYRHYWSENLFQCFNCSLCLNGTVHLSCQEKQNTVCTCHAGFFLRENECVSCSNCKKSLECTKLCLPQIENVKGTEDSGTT
experimental-protocol: yeast display SC50
Attribute: apparent Kd (screen)
// units = nM; emit number, no label

# binder, reading
records = [
    ("K93T (designed binder) SMEEEVEKAAKEYEKKKKEAIEKHLEKLKAKDKEAAERFLKELEEAAKEYAKDEAKTMSEEEAKRRAKKYKEKVLLSELSEEEQKEIKEAEETLVRTILKYVEEAAK", 0.869),
]

Value lookup for apparent Kd (screen); key = K29S (designed binder) SMEEEVEKAAKEYEKKKKEAIEKHLEKLSAKDKEAAERFLKELEEAAKEYAKDEAKTMSEEEAKRRAKKYKEKVLLSELSEEEQKEIKEAEEKLVRTILKYVEEAAK
0.446

The values you see were collected from paper PMC12416549.
